Test system: blackgrass (Alopecurus myosuroides)
Assay: Test A greenhouse herbicide test, postemergence
Format: in vivo
Details: 125 g ai/ha, 0 to 100 scale where 0 is no effect and 100 is complete control
Listed compounds paired with reported Plant response rating, Blackgrass
valueKind: Plant response rating, Blackgrass

> print(dat)
                                    compound                          valuekind  measuredresult
 1  Cc1sc2ccccc2c1-c1c(O)cnn(C)c1=O [Compound 48]  Plant response rating, Blackgrass               0
 2  COc1nn(C)c(=O)c(-c2c(C)sc3ccc(Cl)cc23)c1OC(C)=O [Compound 122]  Plant response rating, Blackgrass              30
 3  CC(=O)Oc1cnn(C)c(=O)c1-c1c(C)sc2ccccc12 [Compound 120]  Plant response rating, Blackgrass               0
 4  COc1nn(C)c(=O)c(-c2c(C(F)F)ccc3ccccc23)c1O [Compound 86]  Plant response rating, Blackgrass              10
 5  Cc1sc2ccccc2c1-c1c(O)c(Cl)nn(C)c1=O [Compound 89]  Plant response rating, Blackgrass              30
 6  CCC(=O)Oc1c(C)nn(C)c(=O)c1-c1ccc(Br)c2ccccc12 [Compound 134]  Plant response rating, Blackgrass              60
 7  CCc1nn(C)c(=O)c(-c2c(C)oc3ccc(C)cc23)c1O [Compound 118]  Plant response rating, Blackgrass               0
 8  CCC(=O)Oc1c(C)nn(C)c(=O)c1-c1ccc(Cl)c2ccccc12 [Compound 62]  Plant response rating, Blackgrass              70
 9  Cc1ccc2sc(C)c(-c3c(OC(=O)OC(C)C)c(C)nn(C)c3=O)c2c1 [Compound 66]  Plant response rating, Blackgrass              60
10  CCC(=O)Oc1c(C)nn(C)c(=O)c1-c1c(C)ccc2ccccc12 [Compound 78]  Plant response rating, Blackgrass              30
11  Cc1nn(C)c(=O)c(-c2cccc3ccc(Br)cc23)c1O [Compound 126]  Plant response rating, Blackgrass              60
12  COC(=O)Oc1c(C)nn(C)c(=O)c1-c1ccc(Br)c2ccccc12 [Compound 145]  Plant response rating, Blackgrass              40
13  CCCC(=O)Oc1c(C)nn(C)c(=O)c1-c1c(CC)sc2ccc(C)cc12 [Compound 107]  Plant response rating, Blackgrass              80
14  CCc1nn(C)c(=O)c(-c2c(C)oc3ccc(Cl)cc23)c1O [Compound 77]  Plant response rating, Blackgrass               0
15  Cc1ccc2ccccc2c1-c1c(OC(=O)C(C)(C)C)c(C#N)nn(C)c1=O [Compound 128]  Plant response rating, Blackgrass               0
16  COC(=O)Oc1c(C)nn(C)c(=O)c1-c1ccc(F)c2ccccc12 [Compound 130]  Plant response rating, Blackgrass              60
17  Cc1ccc2ccccc2c1-c1c(OS(C)(=O)=O)cnn(C)c1=O [Compound 142]  Plant response rating, Blackgrass              10
18  CCc1sc2ccc(C)cc2c1-c1c(O)c(C)nn(C)c1=O [Compound 47]  Plant response rating, Blackgrass              60
19  COc1ccc2sc(C)c(-c3c(O)c(C)nn(C)c3=O)c2c1 [Compound 53]  Plant response rating, Blackgrass               0

Measured values drawn from patent US10597388B2 for this set.
